- studyTarget: HLA-A*11:01
- assayExplanation: IEDB peptide-MHC binding, purified MHC/competitive/fluorescence; bounds were set here for any values at or beyond the usual limits of such assays
- testConditions: source organism: Zaire ebolavirus
pIC50: −log10 of the molar value.
# Lookup of reported pIC50 keyed by entry

>>> df
   sequencerecord  datavalue
0       GLITGGRRT     ≤ 4.00
1       TIHHASAPL     ≤ 4.07

Query string: Param item = KILTAGLSV ; retrieve measured pIC50.
Result string: ≤ 3.80

Query string: Fill in: pIC50 of SETAGNNNT is ___
Result string: ≤ 3.44

Query string: For the sequence HRTIHHASA , what pIC50 is on record?
Result string: ≤ 3.81
